Data origin: the supplement of paper PMC11208160

Measured recombinant barcode read abundance (log10) of individual entries
assay: recombinant barcode read abundance after kanamycin selection (control-corrected) (log10(CPM+1)); higher = more efficient recombination; sequences stand for … in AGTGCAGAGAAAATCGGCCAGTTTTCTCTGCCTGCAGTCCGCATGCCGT…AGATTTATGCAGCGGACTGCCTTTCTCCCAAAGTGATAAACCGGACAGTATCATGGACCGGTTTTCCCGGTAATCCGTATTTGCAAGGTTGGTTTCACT; site = the 11-nt target
Reply with just the number.

Study these solved cases before continuing.
GTCCTATCTTGGGTTCTAACCTGTTGCCA (site GTCCTATCTTG) : 0.66
TCCCGTACTTGGGTTCTAACCTGTTGCAT (site TCCCGTACTAT) : 0.43

Problem: I'd like to know its recombinant barcode read abundance (log10). The sequence in question is ACGGGTACTTGGGTTCTAACCTGTTGCCA (site ACGGGTACTTG)
Solution: 1.02

Problem: I'd like to know its recombinant barcode read abundance (log10). The sequence in question is GTCACCGCTTGGGTTCTAACCTGTTGCCT (site GTCACCGCTAG)
Solution: 2.08

Problem: I'd like to know its recombinant barcode read abundance (log10). The sequence in question is AGATTTCCTTGGGTTCTAACCTGTTGCAT (site AGATTTCCTAT)
Solution: 0.173

Problem: I'd like to know its recombinant barcode read abundance (log10). The sequence in question is TTGAACCCTTGGGTTCTAACCTGTTGCGT (site TTGAACCCTAC)
Solution: 1.63

Problem: I'd like to know its recombinant barcode read abundance (log10). The sequence in question is TAGGCTACTTGGGTTCTAACCTGTTGCAC (site TAGGCTACTCT)
Solution: 0.131

Problem: I'd like to know its recombinant barcode read abundance (log10). The sequence in question is CTGCACCCTTGGGTTCTAACCTGTTGCTA (site CTGCACCCTTA)
Solution: 1.61

Problem: I'd like to know its recombinant barcode read abundance (log10). The sequence in question is CGCTCGACTTGGGTTCTAACCTGTTGCCT (site CGCTGGACTAG)
Solution: 0.188

Problem: I'd like to know its recombinant barcode read abundance (log10). The sequence in question is TCCGAGACTTGGGTTCTAACCTGTTGCCG (site TCCGAGACTTG)
Solution: 0.0796

###

assay: recombinant UMI read abundance after kanamycin selection (control-corrected) (log10(CPM+1)); higher = more efficient recombination; extreme values may be limits of the assay; sequences stand for … in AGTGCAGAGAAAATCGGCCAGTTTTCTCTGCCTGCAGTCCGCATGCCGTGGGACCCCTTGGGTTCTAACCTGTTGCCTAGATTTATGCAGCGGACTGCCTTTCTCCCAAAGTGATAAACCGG…AGGTTGGTTTCACT; site = the 11-nt donor
The label depends only on recombinant UMI read abundance (log10): label 1 if it is at least 0.3, label 0 if it is smaller.

GTGAGGGCATGGACCGGTTTTCCCGGTAATCCGTATTTGAA (site GTGAGGGCTTT) : label 1
AATAAACCATGGACCGGTTTTCCCGGTAATCCGTATTTGCC (site AATAAACCTGG) : label 0
TAGGAATCATGGACCGGTTTTCCCGGTAATCCGTATTTGGG (site TAGGAATCTCG) : label 0
TTCAGAGCATGGACCGGTTTTCCCGGTAATCCGTATTTGCC (site TTCAGAGCTGG) : label 0
CTACTAACATGGACCGGTTTTCCCGGTAATCCGTATTTGGA (site CTGCTAACTTC) : label 1
GCGAAGTCATGGACCGGTTTTCCCGGTAATCCGTATTTGGG (site GCGAAGACTCC) : label 0
CCAGTTTCATGGACCGGTTTTCCCGGTAATCCGTATTTGAC (site CCAGTTTCTGT) : label 1
CCGTCTGCATGGACCGGTTTTCCCGGTAATCCGTATTTGCT (site CCGTCTGCTAG) : label 0

Problem: For this sequence, is measured recombinant UMI read abundance (log10) 0.3 or higher? TACTTGACATGGACCGGTTTTCCCGGTAATCCGTATTTGCG (site TACTTGACTCG)
Solution: label 1
